Test system: 5-LO mRNA
Experiment: Downregulation of 5-LO gene expression (5-LO mRNA by real-time RT-PCR) in acetylated-LDL-stimulated macrophage cell lines
Type: cell-based, human and mouse
Settings: 0.1 uM compound; macrophage cell line (THP-1 or J774, not specified)
Method: A panel of LXR or PPAR modulator compounds was tested to determine whether they could downregulate 5-LO gene expression. […] Preparation of Acetylated LDL: LDL was dialyzed with 500 mL phosphate buffered saline (PBS) three times. […] The protein concentration is determined using Bio-Rad DC protein assay kit. […] Murine J774 cells were maintained in DMEM (high glucose) containing 10% FBS, 100 units/mL penicillin, and 100 μg/mL streptomycin. […] The cells were then ready for RNA isolation. […]
attribute measured: inhibition at 0.1 µM (%)
A number alone suffices; assume %.

Query: So what does the record say about inhibition at 0.1 µM for O=C(O)Cc1ccc(COc2cccc(-c3c(Cc4ccccc4)cnc4c(C(F)(F)F)cccc34)c2)cc1 ?
Reply: 84

Query: Any idea what its inhibition at 0.1 µM is? The compound is Cc1cnc2c(C(F)(F)F)cccc2c1-c1cccc(OCc2ccc([C@@H](C)C(=O)O)cc2)c1
Reply: 86

Query: Tell me the measured inhibition at 0.1 µM of Cc1cnc2c(C(F)(F)F)cccc2c1-c1cccc(OCc2ccc(CC(=O)O)cc2)c1 , please.
Reply: 79

Query: Name the recorded inhibition at 0.1 µM for CC(C)(C(=O)O)c1ccc(COc2cccc(-c3c(-c4ccccc4)cnc4c(Cl)cccc34)c2)cc1 .
Reply: 89
